Biological target: VIM-1 (Pseudomonas aeruginosa (strain ATCC 15692 / DSM 22644 / CIP 104116 / JCM 14847 / LMG 12228 / 1C / PRS 101 / PAO1), UniProt A0A0F7KYQ8)
Assay: biochemical
Details: CCF2-FA fluorescence assay, 2 hours at 25° C.; read-out: VIM1 IC50
observable: pIC50
Recall that pIC50 is obtained by taking minus log10 of the concentration measured in molar.

GET /value?item= NC[C@@H](O)CNS(=O)(=O)c1ccc(N2CCC(C(N)CO)CC2)c(-c2nn[nH]n2)c1S(N)(=O)=O (mixture of isomers) [Example 182] &field=pIC50 returns 9.57

GET /value?item= "NC[C@@H](O)CNS(=O)(=O)c1ccc(N[C@@H]2CCC[C@H]2N)c(-c2nn[nH]n2)c1S(N)(=O)=O" &field=pIC50 returns 7.30

GET /value?item= NS(=O)(=O)c1c(S(=O)(=O)N[C@@H]2CCNC2)ccc(N2CCC(CO)CC2=O)c1-c1nn[nH]n1 (stereo partly shown) &field=pIC50 returns 9.60

GET /value?item= NC(=O)C1CCN(c2ccc(S(=O)(=O)N[C@@H]3CCNC3)c(S(N)(=O)=O)c2-c2nn[nH]n2)CCN1 (stereo partly shown) &field=pIC50 returns 9.42

The reported numbers originate from patent US11207312B2.
